- METHOD: BET inhibitor-based combinations targeting novel dependencies in MECOM-rearranged (r) AML: SET-2 cell line (AID 2202231); also: potency is read from the fitted curve at half-maximal effect; nearly all actives have a fitted effect of over 35% in size
- SETTINGS: SET-2 AML cells viability, CellTiter-Glo luminescence, 48 h
Records with an inconclusive call do not appear. The source made the active and inactive calls. Calls follow the shape of the dose curve; as a rule, active = well fitted inhibition curve with a large enough effect; inconclusive = small, poorly fitted or top-dose-only effect; inactive = no such curve, though single readings can be large or run the other way.
MEASURE: Potency

Here's what some known entries look like.
Potency measured on `CN(C)C1CCN(C(=O)c2ccc(NC(=O)Nc3nc(N4CCOCC4)nc(N4CCOCC4)n3)cc2)CC1` = 5.25 µM (active)

Potency measured on `O=C(CCCCCCC(=O)Nc1cccnc1)NO` = 5.25 µM (active)

Potency measured on `CC(C)n1nc(-c2cc3cc(O)ccc3[nH]2)c2c(N)ncnc21` = 2.09 µM (active)

Potency measured on `Nc1ccccc1NC(=O)c1ccc(CNC(=O)OCc2cccnc2)cc1` = 2.09 µM (active)

Potency measured on `NCC(=O)Nc1ccc(-n2nc(C(F)(F)F)cc2-c2ccc3c(ccc4ccccc43)c2)cc1` = 11.8 µM (active)

More entries:
Potency measured on C#CCC(Cc1cnc2nc(N)nc(N)c2n1)c1ccc(C(=O)N[C@@H](CCC(=O)O)C(=O)O)cc1 (stereo not given in full) = 0.0019 µM (active)

Potency measured on `COc1cc(CCc2cc(NC(=O)c3ccc(N4C[C@@H](C)N[C@@H](C)C4)cc3)n[nH]2)cc(OC)c1` = 20.9 µM (active)

Potency measured on `COc1cc(N2CCC(N3CCN(C)CC3)CC2)ccc1Nc1ncc(Cl)c(Nc2ccccc2S(=O)(=O)C(C)C)n1` = 18.6 µM (active)

Potency measured on `Nc1ncn([C@@H]2O[C@H](CO)[C@@H](O)[C@H]2O)c(=O)n1` = 1.05 µM (active)

Potency measured on `CC(C)Oc1cc(Nc2nc(N[C@@H](C)c3ccc(F)cn3)ncc2Cl)[nH]n1` = 18.6 µM (active)

Data credit: PubChem BioAssay (NCATS)
